System Tested: Recombinant human cathepsin A (Homo sapiens, UniProt P10619)
Construct: Recombinant human cathepsin A (residues 29-480, with a C-terminal 10-His tag); 10-His (C); purchased R&D Systems 1049-SE
Sequence (P10619 29-312 limits assumed): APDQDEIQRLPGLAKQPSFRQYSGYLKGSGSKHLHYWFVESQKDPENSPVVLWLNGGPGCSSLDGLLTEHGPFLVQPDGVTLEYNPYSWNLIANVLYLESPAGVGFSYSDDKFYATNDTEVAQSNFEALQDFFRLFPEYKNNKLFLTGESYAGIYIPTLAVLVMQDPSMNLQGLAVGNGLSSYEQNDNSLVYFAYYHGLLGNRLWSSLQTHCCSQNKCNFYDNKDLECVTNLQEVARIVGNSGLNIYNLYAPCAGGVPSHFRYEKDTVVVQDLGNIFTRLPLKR
Sequence (P10619 327-480 limits assumed): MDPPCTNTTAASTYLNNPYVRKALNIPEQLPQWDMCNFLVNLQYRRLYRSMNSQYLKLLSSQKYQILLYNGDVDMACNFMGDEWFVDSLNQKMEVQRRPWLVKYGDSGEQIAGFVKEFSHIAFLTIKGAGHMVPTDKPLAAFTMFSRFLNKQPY
Protocol Details: Cathepsin A inhibitory activity
Assay type: biochemical
Study Conditions: read-out: Activity (2): Cathepsin A inhibitory activity, IC50 class
pIC50: −log10 of the molar value.
Reported Metric: pIC50

Here is how some compounds turned out for pIC50.
compound=CC(C)[C@](C)(O)COc1cc(C(=O)N[C@@H](CC(=O)O)c2ccc(Cl)cc2Cl)nn1-c1ccccc1F system_tested="Recombinant human cathepsin A (Homo sapiens, UniProt P10619)" reported_metric=pIC50 obs_value="> 7.00"
compound=Cc1ccccc1[C@H](CC(=O)O)NC(=O)c1cc(O)n(-c2ccnc(Cl)c2)n1 system_tested="Recombinant human cathepsin A (Homo sapiens, UniProt P10619)" reported_metric=pIC50 obs_value="6.00 to 7.00"
compound=COc1cccc([C@H](CC(=O)O)NC(=O)c2cc(O)n(-c3ccc(Cl)cc3)n2)c1OC system_tested="Recombinant human cathepsin A (Homo sapiens, UniProt P10619)" reported_metric=pIC50 obs_value="6.00 to 7.00"
compound="O=C(O)CC(NC(=O)c1cc(O)n(-c2ccc(F)cc2)n1)c1ccc(-c2ccccc2)cc1 (centres unmarked)" system_tested="Recombinant human cathepsin A (Homo sapiens, UniProt P10619)" reported_metric=pIC50 obs_value="6.00 to 7.00"
compound="Cc1ccccc1[C@H](CC(=O)O)NC(=O)c1cc(OC[C@@](C)(O)C(C)C)n(-c2ccccc2F)n1 [Example 870]" system_tested="Recombinant human cathepsin A (Homo sapiens, UniProt P10619)" reported_metric=pIC50 obs_value="> 7.00"
compound=Cc1ccc(C)c(-n2nc(C(=O)NC(C)(C)CC(=O)O)cc2O)c1 system_tested="Recombinant human cathepsin A (Homo sapiens, UniProt P10619)" reported_metric=pIC50 obs_value="4.52 to 6.00"
compound="Cc1cc(F)ccc1C(CC(=O)O)NC(=O)c1cc(O)n(-c2cccc(F)c2)n1 (centres unmarked)" system_tested="Recombinant human cathepsin A (Homo sapiens, UniProt P10619)" reported_metric=pIC50 obs_value="6.00 to 7.00"

Let's switch to this compound now.
-- ask Fill in: pIC50 of CC(C)c1ccc(C(CC(=O)O)NC(=O)c2cc(O)n(-c3ccccc3)n2)cc1 (centres unmarked) is ___
-- reply 6.00 to 7.00
